- Measurement Target: wild type LRRK2 overexpressed in recombinant HEK-293T cells (Homo sapiens)
- Sequence (Q5S007 whole entry): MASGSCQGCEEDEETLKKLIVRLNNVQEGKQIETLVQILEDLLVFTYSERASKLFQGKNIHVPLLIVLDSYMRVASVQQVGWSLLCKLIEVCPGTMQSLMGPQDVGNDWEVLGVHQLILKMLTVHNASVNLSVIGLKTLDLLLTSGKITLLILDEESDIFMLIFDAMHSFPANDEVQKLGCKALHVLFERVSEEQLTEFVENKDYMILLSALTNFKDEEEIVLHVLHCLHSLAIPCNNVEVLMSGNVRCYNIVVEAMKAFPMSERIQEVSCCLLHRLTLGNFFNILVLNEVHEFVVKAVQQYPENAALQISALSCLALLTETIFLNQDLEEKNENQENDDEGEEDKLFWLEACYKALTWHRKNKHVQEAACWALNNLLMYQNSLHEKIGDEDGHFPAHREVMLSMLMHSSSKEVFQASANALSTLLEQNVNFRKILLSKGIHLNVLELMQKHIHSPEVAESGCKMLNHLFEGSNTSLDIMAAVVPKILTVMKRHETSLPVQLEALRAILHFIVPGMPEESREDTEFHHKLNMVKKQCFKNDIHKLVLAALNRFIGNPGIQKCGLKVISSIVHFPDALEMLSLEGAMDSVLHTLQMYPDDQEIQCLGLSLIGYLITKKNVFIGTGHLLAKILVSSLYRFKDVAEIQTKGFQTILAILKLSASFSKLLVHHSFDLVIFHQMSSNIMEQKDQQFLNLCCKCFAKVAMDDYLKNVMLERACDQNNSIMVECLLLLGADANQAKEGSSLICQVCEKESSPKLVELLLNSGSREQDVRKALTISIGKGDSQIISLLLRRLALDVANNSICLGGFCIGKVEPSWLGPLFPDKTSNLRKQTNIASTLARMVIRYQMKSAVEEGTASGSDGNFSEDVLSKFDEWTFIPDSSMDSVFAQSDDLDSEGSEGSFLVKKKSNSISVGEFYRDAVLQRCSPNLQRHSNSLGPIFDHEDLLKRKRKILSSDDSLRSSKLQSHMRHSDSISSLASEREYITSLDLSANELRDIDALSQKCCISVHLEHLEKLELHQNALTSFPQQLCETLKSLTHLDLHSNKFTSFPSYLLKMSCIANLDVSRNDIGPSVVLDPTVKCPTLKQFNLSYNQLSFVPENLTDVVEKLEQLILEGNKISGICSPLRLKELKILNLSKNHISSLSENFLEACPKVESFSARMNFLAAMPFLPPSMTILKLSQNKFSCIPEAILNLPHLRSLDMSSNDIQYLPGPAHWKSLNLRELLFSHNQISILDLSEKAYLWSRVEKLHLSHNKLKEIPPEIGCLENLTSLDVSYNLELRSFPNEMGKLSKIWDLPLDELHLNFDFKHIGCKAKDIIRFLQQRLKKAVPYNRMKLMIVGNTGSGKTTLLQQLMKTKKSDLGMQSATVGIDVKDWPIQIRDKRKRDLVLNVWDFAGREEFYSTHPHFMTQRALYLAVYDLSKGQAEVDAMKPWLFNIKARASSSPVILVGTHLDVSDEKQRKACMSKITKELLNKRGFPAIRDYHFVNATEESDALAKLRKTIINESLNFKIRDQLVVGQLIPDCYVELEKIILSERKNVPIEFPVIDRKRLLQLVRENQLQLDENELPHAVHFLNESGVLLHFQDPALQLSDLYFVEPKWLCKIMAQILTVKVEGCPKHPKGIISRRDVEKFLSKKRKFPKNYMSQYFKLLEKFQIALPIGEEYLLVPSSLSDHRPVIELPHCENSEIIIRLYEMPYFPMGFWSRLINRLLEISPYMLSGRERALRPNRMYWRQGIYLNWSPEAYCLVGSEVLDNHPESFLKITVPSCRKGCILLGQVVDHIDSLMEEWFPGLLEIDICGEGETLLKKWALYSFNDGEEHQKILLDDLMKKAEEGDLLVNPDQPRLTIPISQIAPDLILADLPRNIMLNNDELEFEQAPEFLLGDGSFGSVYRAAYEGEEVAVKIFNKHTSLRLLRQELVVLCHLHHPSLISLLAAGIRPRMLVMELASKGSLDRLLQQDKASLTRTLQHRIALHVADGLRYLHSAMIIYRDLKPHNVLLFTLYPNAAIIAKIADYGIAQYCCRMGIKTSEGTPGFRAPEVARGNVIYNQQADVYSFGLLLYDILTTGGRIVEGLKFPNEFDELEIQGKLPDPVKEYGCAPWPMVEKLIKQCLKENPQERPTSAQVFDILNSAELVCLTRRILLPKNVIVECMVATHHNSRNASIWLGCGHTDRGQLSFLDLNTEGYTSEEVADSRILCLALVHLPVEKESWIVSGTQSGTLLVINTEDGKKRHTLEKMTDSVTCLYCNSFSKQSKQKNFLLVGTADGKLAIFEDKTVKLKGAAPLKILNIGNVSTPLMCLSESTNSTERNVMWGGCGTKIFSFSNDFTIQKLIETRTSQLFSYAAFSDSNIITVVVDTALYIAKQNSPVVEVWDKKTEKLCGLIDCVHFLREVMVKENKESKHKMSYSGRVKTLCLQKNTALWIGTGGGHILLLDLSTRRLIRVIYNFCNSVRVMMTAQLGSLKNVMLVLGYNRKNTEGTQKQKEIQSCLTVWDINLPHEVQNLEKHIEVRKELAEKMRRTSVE
- Protocol Details: pS935 LRRK2 Cell Assay (HTRF, phospho-LRRK2 Ser935)
- Experimental Conditions: LRRK2 Inhibition, Table 8, 2 hours compound incubation
Label Fulfilled when IC50 is strictly below 10 nM; at or above that, label Not fulfilled.

For this molecule, is IC50 lower than 10 nM? Cc1nc(C)c(NC(=O)Cc2nc3cnc4ccc(Cl)cc4c3n2[C@@H]2CCO[C@H](C)C2)c(C)n1
Fulfilled

For this molecule, is IC50 lower than 10 nM? C[C@@H]1C[C@H](n2c(CC(=O)NCc3cnccn3)nc3cnc4ccc(Cl)cc4c32)CCO1
Fulfilled

For this molecule, is IC50 lower than 10 nM? C[C@@H]1C[C@H](n2c(CS(=O)(=O)C3CC3)nc3cnc4ccc(C#N)cc4c32)CCO1
Not fulfilled

For this molecule, is IC50 lower than 10 nM? C[C@@H]1C[C@H](n2c(CC(=O)Nc3cccn(C)c3=O)nc3cnc4ccc(C#N)cc4c32)CCO1
Fulfilled

For this molecule, is IC50 lower than 10 nM? C[C@@H]1C[C@H](n2c(CNc3nccn3C)nc3cnc4ccc(C#N)cc4c32)CCO1
Not fulfilled

For this molecule, is IC50 lower than 10 nM? C[C@@H]1C[C@H](n2c(CNS(=O)(=O)C3CC3)nc3cnc4ccc(C#N)cc4c32)CCO1
Not fulfilled

For this molecule, is IC50 lower than 10 nM? C[C@@H]1C[C@H](n2c(CC(=O)Nc3ccon3)nc3cnc4ccc(Cl)cc4c32)CCO1
Fulfilled

For this molecule, is IC50 lower than 10 nM? C[C@@H]1C[C@H](n2c([C@H]3CNC(=O)C3)nc3cnc4ccc(C#N)cc4c32)CCO1
Not fulfilled

For this molecule, is IC50 lower than 10 nM? C[C@@H]1C[C@H](n2c(CC(=O)NC3(CO)CC3)nc3cnc4ccc(C#N)cc4c32)CCO1
Not fulfilled

For this molecule, is IC50 lower than 10 nM? C[C@@H]1C[C@H](n2c([C@H]3CCN(C(=O)OC(C)(C)C)C3)nc3cnc4ccc(C#N)cc4c32)CCO1
Not fulfilled

For this molecule, is IC50 lower than 10 nM? COc1ccc2ncc3nc(CC(=O)NC4CC4)n([C@@H]4CCO[C@H](C)C4)c3c2c1
Not fulfilled

For this molecule, is IC50 lower than 10 nM? C[C@@H]1C[C@H](n2c(C3CC(=O)N([C@@H](C)C4CC4)C3)nc3cnc4ccc(C#N)cc4c32)CCO1 (stereo partly drawn)
Not fulfilled

For this molecule, is IC50 lower than 10 nM? C[C@@H]1C[C@H](n2c(CC(=O)Nc3cccnn3)nc3cnc4ccc(C#N)cc4c32)CCO1
Fulfilled

For this molecule, is IC50 lower than 10 nM? C[C@@H]1C[C@H](n2c(CC(=O)NC3CCOCC3)nc3cnc4ccc(Cl)cc4c32)CCO1
Not fulfilled

----------
- Measurement Target: UniProtKB Q5S007
- Protocol Details: Biochemical Assay: LRRK2 TR-FRET (LanthaScreen) kinase assay with LRRKtide substrate
- Experimental Conditions: LRRK2 Inhibition, Table 8
Measured Metric: IC50 (nM)
Please respond with the number in nM and leave the unit unwritten.

Param item = C[C@@H]1C[C@H](n2c(C3CC(=O)N([C@H]4CCOC4)C3)nc3cnc4ccc(C#N)cc4c32)CCO1 (stereo partly shown) ; retrieve measured IC50.
3.24

Param item = CC(=O)N1CC[C@@H](c2nc3cnc4ccc(C#N)cc4c3n2[C@@H]2CCO[C@H](C)C2)C1 ; retrieve measured IC50.
13

Param item = CC(C(=O)NCC1CC1)c1nc2cnc3ccc(C#N)cc3c2n1[C@@H]1CCO[C@H](C)C1 (stereo partly shown) ; retrieve measured IC50.
13.8

Param item = Cc1nn(C)cc1NC(=O)Cc1nc2cnc3ccc(C#N)cc3c2n1[C@@H]1CCO[C@H](C)C1 ; retrieve measured IC50.
0.621

Param item = COc1ncncc1NC(=O)Cc1nc2cnc3ccc(C#N)cc3c2n1[C@@H]1CCO[C@H](C)C1 ; retrieve measured IC50.
0.382

Param item = C[C@@H]1C[C@H](n2c(CC(=O)Nc3cnc(C(F)F)nc3)nc3cnc4ccc(C#N)cc4c32)CCO1 ; retrieve measured IC50.
0.546

Param item = C[C@@H]1C[C@H](n2c(CC(=O)NCc3cccnc3)nc3cnc4ccc(C#N)cc4c32)CCO1 ; retrieve measured IC50.
0.33
